Target: Calcium/calmodulin-dependent protein kinase type 1D (Homo sapiens) (UniProt Q8IU85);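 further: reported figure is the mean inhibition of CAMK1D, from the GSK PKIS screening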
Sequence (Q8IU85 whole entry, looked up): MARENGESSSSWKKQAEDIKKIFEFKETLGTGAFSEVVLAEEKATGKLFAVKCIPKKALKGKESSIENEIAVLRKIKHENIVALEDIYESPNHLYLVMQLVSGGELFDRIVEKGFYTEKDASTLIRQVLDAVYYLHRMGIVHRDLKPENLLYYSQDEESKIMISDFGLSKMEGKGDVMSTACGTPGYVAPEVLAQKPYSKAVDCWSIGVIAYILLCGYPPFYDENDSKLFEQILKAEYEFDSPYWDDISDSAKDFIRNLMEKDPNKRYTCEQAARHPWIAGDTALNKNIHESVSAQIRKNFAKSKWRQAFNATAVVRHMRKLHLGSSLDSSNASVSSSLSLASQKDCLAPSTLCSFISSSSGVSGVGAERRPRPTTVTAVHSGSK
Conditions: at 0.1 µM
I'd be grateful if you could share measured inhibition for these entries.
Lab book: enter the figure in %, no units written.

Form: compound = Fc1cccc(COc2ccc(Nc3ncnc4sc(-c5ccco5)cc34)cc2Cl)c1 ; inhibition = -0.77

Form: compound = Fc1ccc(-c2nn3ccccc3c2-c2ccncc2)cc1 ; inhibition = 0.87

Form: compound = CCN(CC)S(=O)(=O)c1ccc(OC)c(Nc2ncc(-c3ccccc3)o2)c1 ; inhibition = 0.13

Form: compound = COC(=O)Nc1nc2ccc(Oc3ccc(NC(=O)Nc4cccc(Cl)c4)cc3)cc2[nH]1 ; inhibition = 0.74

Form: compound = CC(C)(CO)CNC(=O)c1ccc2c(c1)/C(=N/Nc1ccc(S(N)(=O)=O)cc1)C(=O)N2 ; inhibition = 0.39

Form: compound = Clc1ccc(-c2nn3ncccc3c2-c2ccnc(Nc3ccccc3)n2)cc1 ; inhibition = 2.4

Form: compound = Cc1ccc2c(-c3ccnc(Nc4ccccc4)n3)c(-c3ccc(F)cc3)nn2n1 ; inhibition = 0.93

Form: compound = N#Cc1c(NC(=O)c2ccc(F)cc2)sc2c1CCCC2 ; inhibition = 0.76

Form: compound = CN(C)CCOc1ccc(-c2nc(-c3ccncc3)c(-c3ccc4c(c3)CC/C4=N\O)[nH]2)cc1 ; inhibition = 0.25

Form: compound = COc1cc(N2CCN(C(C)C)CC2)ccc1Nc1nc(Nc2ccc(F)cc2C(N)=O)c2cc[nH]c2n1 ; inhibition = 10.9

Form: compound = COC(=O)c1sc(-n2cnc3cc(OC)c(OC)cc32)cc1OCc1ccccc1C(F)(F)F ; inhibition = 0.66

Form: compound = COc1ccc(-c2cc3c(N)ncnc3o2)cc1 ; inhibition = 1.05

Form: compound = COc1ccc(-c2oc3ncnc(N)c3c2-c2ccc(NC(=O)Nc3cc(C(F)(F)F)ccc3F)cc2)cc1 ; inhibition = 1.06

Form: compound = CCn1c(-c2nonc2N)nc2ccccc21 ; inhibition = 1.89

Form: compound = CCn1c(-c2nonc2N)nc2c(C#CC(C)(C)O)nc(OC[C@H](N)c3ccccc3)cc21 ; inhibition = 0.96

Form: compound = COc1ccc2[nH]c3c4[nH]c5ccc(OC)cc5c4c4c(c3c2c1)C(=O)NC4=O ; inhibition = 6.96

Form: compound = CCn1c(-c2nonc2N)nc2cnc(Oc3cccc(NC(=O)c4ccc(N(C)C)cc4)c3)cc21 ; inhibition = 0.25

Form: compound = c1cc(-c2cnn3nc(N4CCOCC4)ccc23)nc(NC2CC2)n1 ; inhibition = 1.69

Form: compound = c1ccc(COc2ccc(Nc3ncnc4ccc(-c5ccco5)cc34)cc2)cc1 ; inhibition = 0.28

Form: compound = COc1cccc(-c2c[nH]c3c(N/N=C/c4ccncc4)ncnc23)c1 ; inhibition = 2.11

Form: compound = COc1ccc(CNC(=O)c2ccc(-c3cc(-c4nnc(C)o4)ccc3C)cc2)cc1 ; inhibition = 1.11
